Attribution: patent US9663464B2

- SYSTEM_TESTED: 5-HT6 (Homo sapiens, UniProt P50406)
- Sequence (P50406 whole entry, species assumed): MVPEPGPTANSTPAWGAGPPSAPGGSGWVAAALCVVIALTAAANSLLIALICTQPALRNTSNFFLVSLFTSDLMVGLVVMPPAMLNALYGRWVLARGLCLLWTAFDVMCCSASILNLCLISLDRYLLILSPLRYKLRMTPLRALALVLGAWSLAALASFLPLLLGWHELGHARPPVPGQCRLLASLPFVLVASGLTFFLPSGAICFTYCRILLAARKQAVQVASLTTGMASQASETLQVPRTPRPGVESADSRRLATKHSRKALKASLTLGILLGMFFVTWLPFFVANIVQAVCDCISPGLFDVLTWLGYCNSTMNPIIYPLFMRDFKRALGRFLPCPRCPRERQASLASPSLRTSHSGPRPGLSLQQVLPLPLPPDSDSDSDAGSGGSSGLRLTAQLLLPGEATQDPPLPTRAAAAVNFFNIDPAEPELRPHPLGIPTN
Counter-ions that a name gives are not always drawn.
Recorded log10(Ki) values for a group of molecules are listed next.
Hey, these are logged values: log10 of Ki, nM being the unit before logging.

O=C(CCCCCN1CCC(Cc2ccccc2)CC1)n1c2ccccc2c2ccccc21 [Example 2.10, hydrochloride] = 2.55

Incoming: Param readout= log10(Ki); system= 5-HT6 (Homo sapiens, UniProt P50406); entry= O=C(CCCCCN1CCC(c2ccccc2)CC1)n1c2ccccc2c2ccccc21 [Example 2.9, hydrochloride] ; returns value.
Outgoing: 2.57

Incoming: Param readout= log10(Ki); system= 5-HT6 (Homo sapiens, UniProt P50406); entry= O=C(CCCCN1CCC(Cc2ccccc2)CC1)n1c2ccccc2c2ccccc21 [Example 2.26, hydrochloride] ; returns value.
Outgoing: 2.48

Incoming: Param readout= log10(Ki); system= 5-HT6 (Homo sapiens, UniProt P50406); entry= O=C(CCCCN1CCC(c2ccccc2)CC1)n1c2ccccc2c2ccccc21 [Example 2.25, hydrochloride] ; returns value.
Outgoing: 3.18

Incoming: Param readout= log10(Ki); system= 5-HT6 (Homo sapiens, UniProt P50406); entry= `c1ccc(C2CCN(CCCCCn3c4ccccc4c4ccccc43)CC2)cc1` ; returns value.
Outgoing: 2.09

* * *

- SYSTEM_TESTED: 5-HT1A (Homo sapiens, UniProt P08908)
- Sequence (P08908 whole entry, species assumed): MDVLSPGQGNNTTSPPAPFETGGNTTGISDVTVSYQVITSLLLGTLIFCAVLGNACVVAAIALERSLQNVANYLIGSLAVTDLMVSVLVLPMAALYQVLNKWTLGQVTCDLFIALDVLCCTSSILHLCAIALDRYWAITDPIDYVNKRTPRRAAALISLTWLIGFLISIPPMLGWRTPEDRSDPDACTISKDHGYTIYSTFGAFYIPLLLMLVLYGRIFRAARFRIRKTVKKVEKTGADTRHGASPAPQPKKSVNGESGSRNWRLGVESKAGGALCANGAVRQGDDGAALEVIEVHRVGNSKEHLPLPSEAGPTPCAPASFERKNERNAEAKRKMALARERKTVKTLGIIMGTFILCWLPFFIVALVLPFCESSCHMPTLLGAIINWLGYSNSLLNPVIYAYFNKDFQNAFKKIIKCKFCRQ
- ASSAY_NOTES: 5-HT1A receptor inhibition (Table 3)
- Assay type: binding
Where a name gives a salt, the structure may show the parent alone.
Recorded inhibition at 10 µM values for a group of compounds are listed next.
Numeric answer plus unit only.

Record excerpt, results attached:
c1ccc(CN2CCN(CCCCCCn3c4ccccc4c4ccccc43)CC2)cc1 = 62%
O=C(CCCCCN1CCN(Cc2ccccc2)CC1)n1c2ccccc2c2ccccc21 [Example 2.13, hydrochloride] = 76.8%
c1ccc(CN2CCN(CCCn3c4ccccc4c4ccccc43)CC2)cc1 = 64.9%
CC(=O)N1CCN(CCCCCC(=O)n2c3ccccc3c3ccccc32)CC1 [Example 2.11, hydrochloride] = 51.8%

Below: the item to evaluate.
Incoming: # get_value(readout='inhibition at 10 µM', item= O=C(CCCCN1CCN(Cc2ccccc2)CC1)n1c2ccccc2c2ccccc21 [Example 2.29, hydrochloride] )
Outgoing: 66.5%

* * *

Recorded inhibition at 10 µM values for a group of compounds are listed next.
- SYSTEM_TESTED: UniProtKB P08908
- ASSAY_NOTES: 5-HT1A receptor inhibition (Table 3)
- Assay type: binding
Counter-ions that a name gives are not always drawn.

COc1ccccc1N1CCN(CCCCC(=O)n2c3ccccc3c3ccccc32)CC1 [Example 2.31, hydrochloride] = 103%
O=C(CCCCCN1CCN(c2ccccc2O)CC1)n1c2ccccc2c2ccccc21 = 94.2%
COc1ccccc1N1CCN(CCCn2c3ccccc3c3ccccc32)CC1 = 103%

Incoming: Param readout= inhibition at 10 µM; system= UniProtKB P08908; entry= `COc1ccccc1N1CCN(CCCCCn2c3ccccc3c3ccccc32)CC1` ; returns value.
Outgoing: 101%

Incoming: Param readout= inhibition at 10 µM; system= UniProtKB P08908; entry= O=C(CCCCN1CCN(c2ccccc2O)CC1)n1c2ccccc2c2ccccc21 [Example 2.30, hydrochloride] ; returns value.
Outgoing: 102%

Incoming: Param readout= inhibition at 10 µM; system= UniProtKB P08908; entry= `CN1CCN(CCCCCCn2c3ccccc3c3ccccc32)CC1` ; returns value.
Outgoing: 19.3%

* * *

- SYSTEM_TESTED: UniProt P28335
- Sequence (P28335 33-458, species assumed): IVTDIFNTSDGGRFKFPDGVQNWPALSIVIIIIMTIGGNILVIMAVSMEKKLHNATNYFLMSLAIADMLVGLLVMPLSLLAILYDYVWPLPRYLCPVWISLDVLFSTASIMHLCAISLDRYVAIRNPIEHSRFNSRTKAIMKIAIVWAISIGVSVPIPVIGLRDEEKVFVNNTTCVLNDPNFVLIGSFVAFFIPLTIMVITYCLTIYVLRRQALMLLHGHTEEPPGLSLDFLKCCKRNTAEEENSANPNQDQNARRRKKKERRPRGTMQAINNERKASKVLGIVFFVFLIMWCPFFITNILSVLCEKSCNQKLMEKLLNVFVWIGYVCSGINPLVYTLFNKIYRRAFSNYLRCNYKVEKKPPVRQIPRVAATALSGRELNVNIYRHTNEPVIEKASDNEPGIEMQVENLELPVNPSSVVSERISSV
- ASSAY_NOTES: 5-HT2C receptor inhibition/binding (Tables 1-3)
- CONDITION: 10 μM
Where a name gives a salt, the structure may show the parent alone.
Categories are assigned from the measured inhibition at 10 µM using these intervals: category 1 = under 50%, category 2 = from 50% up to 70%, category 3 = 70% and over

Incoming: For `COc1ccccc1N1CCN(CCCC(=O)n2c3ccccc3c3ccccc32)CC1` , which inhibition at 10 µM bin applies?
Outgoing: category 3

Incoming: For CN(CCCCCC(=O)n1c2ccccc2c2ccccc21)Cc1ccccc1 [Example 2.2, hydrochloride] , which inhibition at 10 µM bin applies?
Outgoing: category 2

Incoming: For O=C(CCCCN1CCCCCC1)n1c2ccccc2c2ccccc21 [Example 2.23, hydrochloride] , which inhibition at 10 µM bin applies?
Outgoing: category 2

Incoming: For `O=C(CCCCCN1CCN(c2ccccc2O)CC1)n1c2ccccc2c2ccccc21` , which inhibition at 10 µM bin applies?
Outgoing: category 3

Incoming: For O=C(CCCCN1CCCC1)n1c2ccccc2c2ccccc21 [Example 2.19, hydrochloride] , which inhibition at 10 µM bin applies?
Outgoing: category 1

* * *

- SYSTEM_TESTED: UniProt P28566
- Sequence (P28566 whole entry, species assumed): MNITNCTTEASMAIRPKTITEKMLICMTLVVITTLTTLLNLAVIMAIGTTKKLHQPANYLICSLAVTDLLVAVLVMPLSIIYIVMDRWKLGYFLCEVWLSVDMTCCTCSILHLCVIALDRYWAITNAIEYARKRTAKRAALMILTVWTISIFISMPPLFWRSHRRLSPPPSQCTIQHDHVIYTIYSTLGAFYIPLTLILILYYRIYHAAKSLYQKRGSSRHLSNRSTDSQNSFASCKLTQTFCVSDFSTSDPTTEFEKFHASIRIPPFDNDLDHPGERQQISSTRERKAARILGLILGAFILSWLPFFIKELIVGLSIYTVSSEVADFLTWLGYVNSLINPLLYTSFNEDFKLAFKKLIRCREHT
- ASSAY_NOTES: 5-HT1E receptor inhibition (Table 1)
- Format: binding
Structures can show the parent of a compound that is named as a salt.
Recorded inhibition at 10 µM values for a group of compounds are listed next.
The reply should contain only the number, in %.

CC1CCN(CCCCCC(=O)n2c3ccccc3c3ccccc32)CC1 = -11.6
CN(CCCCCCn1c2ccccc2c2ccccc21)Cc1ccccc1 = -13.2
CC1CC(C)CN(CCCCC(=O)n2c3ccccc3c3ccccc32)C1 (stereo not shown) [Example 2.22, hydrochloride] = -10.5

Incoming: # get_value(readout='inhibition at 10 µM', item= CC1CC(C)CN(CCCCCCn2c3ccccc3c3ccccc32)C1 (stereo not shown) )
Outgoing: -7.3

* * *

- SYSTEM_TESTED: human gene recombinant 5-HT7 receptor expressed in CHO cells (Homo sapiens, UniProt P34969)
- Sequence (P34969 whole entry): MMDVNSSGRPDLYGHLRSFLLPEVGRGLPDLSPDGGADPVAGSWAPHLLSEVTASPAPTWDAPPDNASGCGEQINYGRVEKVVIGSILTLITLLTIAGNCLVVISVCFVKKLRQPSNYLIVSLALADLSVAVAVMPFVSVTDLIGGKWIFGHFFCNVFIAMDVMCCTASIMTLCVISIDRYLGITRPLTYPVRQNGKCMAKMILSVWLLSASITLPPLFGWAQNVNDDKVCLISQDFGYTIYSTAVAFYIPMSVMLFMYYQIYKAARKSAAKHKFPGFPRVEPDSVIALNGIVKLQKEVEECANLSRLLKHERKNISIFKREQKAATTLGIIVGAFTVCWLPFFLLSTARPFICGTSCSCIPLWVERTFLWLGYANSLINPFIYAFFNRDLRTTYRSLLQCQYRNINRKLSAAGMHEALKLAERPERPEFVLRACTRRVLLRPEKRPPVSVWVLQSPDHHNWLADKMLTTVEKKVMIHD
- ASSAY_NOTES: Binding affinity for the 5-HT7 serotonin receptor ([3H]LSD radioligand)
Structures can show the parent of a compound that is named as a salt.
PARAMETER_MEASURED: pKi
Reminder that pKi means the negative base-10 logarithm of the concentration expressed in mol/L.

Record excerpt, results attached:
CC(=O)N1CCN(CCCCCCn2c3ccccc3c3ccccc32)CC1 = 5.83
CC1CCCN(CCCCC(=O)n2c3ccccc3c3ccccc32)C1 (stereo not drawn) [Example 2.21, hydrochloride] = 6.05

Incoming: # get_value(readout='pKi', item= `c1ccc(C2CCN(CCCCCn3c4ccccc4c4ccccc43)CC2)cc1` )
Outgoing: 6.75

Incoming: # get_value(readout='pKi', item= CC(=O)N1CCN(CCCCC(=O)n2c3ccccc3c3ccccc32)CC1 [Example 2.27, hydrochloride] )
Outgoing: 5.97

Incoming: # get_value(readout='pKi', item= `COc1ccccc1N1CCN(CCCCn2c3ccccc3c3ccccc32)CC1` )
Outgoing: 7.19

Incoming: # get_value(readout='pKi', item= `Oc1ccccc1N1CCN(CCCn2c3ccccc3c3ccccc32)CC1` )
Outgoing: 7.02

* * *

- SYSTEM_TESTED: human gene recombinant 5-HT7 receptor expressed in CHO cells (Homo sapiens)
- ASSAY_NOTES: Binding affinity for the 5-HT7 serotonin receptor ([3H]LSD radioligand)
Where a name gives a salt, the structure may show the parent alone.
Recorded pKi values for a group of compounds are listed next.
Reminder that pKi means the negative base-10 logarithm of the concentration expressed in mol/L.

c1ccc(C2CCN(CCCCn3c4ccccc4c4ccccc43)CC2)cc1 = 6.69
c1ccc(CC2CCN(CCCCCCn3c4ccccc4c4ccccc43)CC2)cc1 = 6.63
COc1ccccc1N1CCN(CCCCC(=O)n2c3ccccc3c3ccccc32)CC1 [Example 2.31, hydrochloride] = 7.52
CCCCN(C)CCCCC(=O)n1c2ccccc2c2ccccc21 [Example 2.17, hydrochloride] = 5.89
O=C(CCCCCN1CCN(c2noc3ccccc23)CC1)n1c2ccccc2c2ccccc21 [Example 2.14, hydrochloride] = 7.14

Incoming: # get_value(readout='pKi', item= `c1ccc(C2CCN(CCCn3c4ccccc4c4ccccc43)CC2)cc1` )
Outgoing: 6.45

Incoming: # get_value(readout='pKi', item= `O=C(CCCN1CCN(c2ccccc2O)CC1)n1c2ccccc2c2ccccc21` )
Outgoing: 7.30

* * *

Recorded inhibition at 10 µM values for a group of compounds are listed next.
- SYSTEM_TESTED: human gene recombinant 5-HT7 receptor expressed in CHO cells (Homo sapiens)
- Construct: expressed in transfected cells; host or cells: CHO cells (membrane preparation)
- ASSAY_NOTES: Binding affinity for the 5-HT7 serotonin receptor ([3H]LSD radioligand)
- CONDITION: 10 μM
Counter-ions that a name gives are not always drawn.
The reply should contain only the number, in %.

Record excerpt, results attached:
CC1CC(C)CN(CCCCCCn2c3ccccc3c3ccccc32)C1 (centres unmarked) = 57.7
O=C(CCCCCN1CCC(c2ccccc2)CC1)n1c2ccccc2c2ccccc21 [Example 2.9, hydrochloride] = 99.8
CC(=O)N1CCN(CCCCC(=O)n2c3ccccc3c3ccccc32)CC1 [Example 2.27, hydrochloride] = 64.6
O=C(CCCCN1CCCC1)n1c2ccccc2c2ccccc21 [Example 2.19, hydrochloride] = 57.4
O=C(CCCCCN1CCN(Cc2ccccc2)CC1)n1c2ccccc2c2ccccc21 [Example 2.13, hydrochloride] = 94.8
c1ccc2c(c1)c1ccccc1n2CCCCCCN1CCCC1 = 66.9
CC1CCCN(CCCCCCn2c3ccccc3c3ccccc32)C1 (centres unmarked) = 75.6
CC(=O)N1CCN(CCCCCC(=O)n2c3ccccc3c3ccccc32)CC1 [Example 2.11, hydrochloride] = 72.1

Incoming: # get_value(readout='inhibition at 10 µM', item= `Oc1ccccc1N1CCN(CCCCCn2c3ccccc3c3ccccc32)CC1` )
Outgoing: 94.4

Incoming: # get_value(readout='inhibition at 10 µM', item= `c1ccc2c(c1)c1ccccc1n2CCCCCCN1CCCCCC1` )
Outgoing: 71.3

Incoming: # get_value(readout='inhibition at 10 µM', item= `CN(CCCCCCn1c2ccccc2c2ccccc21)Cc1ccccc1` )
Outgoing: 64

Incoming: # get_value(readout='inhibition at 10 µM', item= `COc1ccccc1N1CCN(CCCCCC(=O)n2c3ccccc3c3ccccc32)CC1` )
Outgoing: 102

Incoming: # get_value(readout='inhibition at 10 µM', item= O=C(CCCCCN1CCN(c2noc3ccccc23)CC1)n1c2ccccc2c2ccccc21 [Example 2.14, hydrochloride] )
Outgoing: 94.1

Incoming: # get_value(readout='inhibition at 10 µM', item= CN(CCCCCC(=O)n1c2ccccc2c2ccccc21)Cc1ccccc1 [Example 2.2, hydrochloride] )
Outgoing: 92

Incoming: # get_value(readout='inhibition at 10 µM', item= CC1CCN(CCCCC(=O)n2c3ccccc3c3ccccc32)CC1 [Example 2.20, hydrochloride] )
Outgoing: 80.2

Incoming: # get_value(readout='inhibition at 10 µM', item= O=C(CCCCCN1CCCC1)n1c2ccccc2c2ccccc21 [Example 2.3, hydrochloride] )
Outgoing: 74

Incoming: # get_value(readout='inhibition at 10 µM', item= CC1CC(C)CN(CCCCC(=O)n2c3ccccc3c3ccccc32)C1 (centres unmarked) [Example 2.22, hydrochloride] )
Outgoing: 67.6
